biological target: GLP-1R (Homo sapiens, UniProt P43220); experiment: GLP-1R activation: cAMP increase in CHO cells stably expressing GLP-1R; type: cell-based; conditions: cAMP increase, CHO cells stably expressing GLP-1R, 10 point dose response, 30 minutes incubation; read-out: EC50
Sequence (P43220 24-463): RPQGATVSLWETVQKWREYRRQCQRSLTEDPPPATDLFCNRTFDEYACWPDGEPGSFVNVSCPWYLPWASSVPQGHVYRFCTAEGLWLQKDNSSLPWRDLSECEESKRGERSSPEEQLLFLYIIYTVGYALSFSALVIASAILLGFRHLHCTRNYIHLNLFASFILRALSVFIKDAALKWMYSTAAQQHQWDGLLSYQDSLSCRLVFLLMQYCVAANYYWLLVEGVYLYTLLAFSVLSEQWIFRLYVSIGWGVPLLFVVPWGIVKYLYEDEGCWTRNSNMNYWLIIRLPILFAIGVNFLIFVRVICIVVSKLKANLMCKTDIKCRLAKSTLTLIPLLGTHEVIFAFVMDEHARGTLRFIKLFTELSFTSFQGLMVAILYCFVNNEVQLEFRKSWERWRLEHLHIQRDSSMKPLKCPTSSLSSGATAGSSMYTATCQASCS
OBSERVABLE: pEC50
Quick note: pEC50 means taking -log10 of the concentration in moles per liter.

Some compounds with recorded pEC50:
1) N#Cc1ccc(COc2cccc(-c3ccc(Cc4nc5c(F)cc(C(=O)O)cc5n4CC4(CF)CC4)cc3F)n2)c(F)c1 ... 9.64
2) COCCn1c(Cc2ccc(-c3cccc(OCc4ccccc4C(F)F)n3)cc2F)nc2ccc(C(=O)O)cc21 ... 6.44
3) COCCn1c(Cc2cc(F)c(-c3cccc(OCc4ccc(-c5ncccn5)cc4F)n3)cc2F)nc2ccc(C(=O)O)cc21 ... 7.25

Qu. For the compound shown here, N#Cc1ccc(COc2cccc(-c3ccc(Cc4nc5cc(C(=O)O)ccc5n4CC4(CF)CC4)c(F)c3)n2)c(F)c1 , give the reported pEC50.
Ans. 7.74

Qu. For the compound shown here, COCCn1c(Cc2cc(Cl)c(-c3cccc(OCc4ccc(C#N)cc4F)n3)cc2F)nc2ccc(C(=O)O)cc21 , give the reported pEC50.
Ans. 7.90

Qu. For the compound shown here, COCCn1c(Cc2cc(F)c(-c3cccc(OCc4ccc(C#N)cc4F)n3)cc2F)nc2ccc(C(=O)O)nc21 , give the reported pEC50.
Ans. 8.33

Qu. For the compound shown here, N#CCC1(Cn2c(Cc3cc(F)c(-c4ccnc(OCc5ccc(C(F)F)cc5F)n4)cc3F)nc3ccc(C(=O)O)cc32)CC1 , give the reported pEC50.
Ans. 9.72

Qu. For the compound shown here, N#CCC1(Cn2c(Cc3ccc(-c4ccnc(OCc5ccc(C#N)cc5F)n4)cc3F)nc3ccc(C(=O)O)cc32)CC1 , give the reported pEC50.
Ans. 8.78

Qu. For the compound shown here, COCCn1c(Cc2ccc(-c3cccc(OCc4ccc(C#N)cc4F)n3)cc2NC(C)=O)nc2ccc(C(=O)O)cc21 , give the reported pEC50.
Ans. 5.91

Qu. For the compound shown here, N#Cc1ccc(COc2cccc(-c3cc(F)c(Cc4nc5ccc(C(=O)O)cc5n4CC4(n5ccnn5)CC4)cc3F)n2)c(F)c1 , give the reported pEC50.
Ans. 9.40

Qu. For the compound shown here, N#Cc1ccc(COc2cccc(-c3cc(F)c(Cc4nc5ccc(C(=O)O)cc5n4CC4(F)CCOCC4)cc3F)n2)c(F)c1 , give the reported pEC50.
Ans. 8.24

Qu. For the compound shown here, COCCn1c(Cc2ccc(-c3cccc(OCc4ccncc4OC)n3)c(F)c2)nc2ccc(C(=O)O)cc21 , give the reported pEC50.
Ans. 7.51

Qu. For the compound shown here, N#Cc1ccc(COc2cccc(-c3cc(F)c(Cc4nc5ccc(C(=O)O)cc5n4Cc4ccc[nH]c4=O)cc3F)n2)c(F)c1 , give the reported pEC50.
Ans. 6.60

Qu. For the compound shown here, CCn1c(Cn2c(Cc3ccc(-c4cccc(OCc5ccc(C#N)cc5F)n4)cc3F)nc3ccc(C(=O)O)cc32)cnc1C , give the reported pEC50.
Ans. 7.41

The measurements presented in this section are drawn from patent US11702404B2.
